So I've got a bunch of binders here, and I need their Ratio Kd values.
target: T1, human serum albumin (human, UniProt P02768 25-609); assay: SPR (Biacore), off-rate pH 7.4 over pH 5.5
T1 construct: also called HSA
Numbers only.

# Ratio Kd (binder: 12G03 (VHH) VHH: QVQLVESGGGLVQAGGSLRLSCAASERAFSHSNMAWFRQAPGKEREFVAHIHWRGSTTYLDSVKGRFTISRDNAKNTVYLQMNGLRLEDTAVYYCAADSARRILVTVSTSYDYWGQGTQVTVSS ) is 4.1

# Ratio Kd (binder: 11C03 (VHH, also called 11C03 parental (VHH)) VHH: QLQVVESGGGLVQAGGSLRLSCAASERTFVAYPMGWFRQAPEKEREFVAGISWFAGATTDYADSVEGRFTISRDNAKNTAYLQMNNLKPEDTAVYYCAISHQLPGGRPGRDMDSYSYWGHGTQVTVSS ) is 7.7

Okay, now this binder:
# Ratio Kd (binder: 2A10 (VHH) VHH: EVQLVESGGGLVQAGGSLRLSCAASGRTFSSYAMGWFRQAPGKEREFVATINWSGGSTYYADSVKGRFTISRDNAKNTVYLQMNSLKPEDTAVYYCAADLYGPGFVLSMEYDYWGQGTQVTVSS ) is 3.3
